biological target: Recombinant human cathepsin A (Homo sapiens, UniProt P10619); construct: Recombinant human cathepsin A (residues 29-480, with a C-terminal 10-His tag); 10-His (C); purchased R&D Systems 1049-SE; assay: Cathepsin A inhibitory activity; type: biochemical; conditions: read-out: Activity (2): Cathepsin A inhibitory activity (IC50 class)
Sequence (P10619 29-312 limits assumed): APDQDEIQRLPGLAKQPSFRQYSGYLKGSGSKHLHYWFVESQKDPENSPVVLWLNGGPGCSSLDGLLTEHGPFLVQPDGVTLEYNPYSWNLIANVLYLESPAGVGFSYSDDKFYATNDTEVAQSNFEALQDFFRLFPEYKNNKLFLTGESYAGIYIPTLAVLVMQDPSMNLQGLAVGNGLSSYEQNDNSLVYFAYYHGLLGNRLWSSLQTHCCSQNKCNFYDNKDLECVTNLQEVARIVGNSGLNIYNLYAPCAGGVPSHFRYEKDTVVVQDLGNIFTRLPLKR
Sequence (P10619 327-480 limits assumed): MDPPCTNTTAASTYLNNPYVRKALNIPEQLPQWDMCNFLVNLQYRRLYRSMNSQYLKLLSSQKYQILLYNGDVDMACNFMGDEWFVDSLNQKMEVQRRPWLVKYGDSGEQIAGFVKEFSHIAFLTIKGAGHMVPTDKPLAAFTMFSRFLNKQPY
Provide the reported IC50 of each item.

See these solved cases before continuing.
CCOc1cc(C(=O)N[C@@H](CC(=O)O)c2ccccc2OC)nn1-c1ccccc1F [Example 709]: 100 to 1000 nM
COc1cc(C(=O)NC(CC(=O)O)c2ccc(C)cc2C)nn1-c1ccccc1F (centres unmarked) [Example 666]: < 100 nM
CCOc1cc(C(=O)N[C@@H](CC(=O)O)c2ccc(C(F)(F)F)cc2)nn1-c1ccccc1Cl [Example 735]: 100 to 1000 nM

# batch: return IC50 for each of the 5 compounds below
1. O=C(O)CC(NC(=O)c1cc(O)n(-c2ccccc2Cl)n1)c1ccc(N2CCCC2)cc1 (centres unmarked) [Example 568]
2. Cc1ccc([C@H](CC(=O)O)NC(=O)c2cc(OCC3CC3)n(-c3ccccc3F)n2)cc1 [Example 695]
3. CCOc1cc(C(=O)NC(CC(=O)O)c2ccc(OC)cc2C)nn1-c1ccccc1F (centres unmarked) [Example 714]
4. COc1ccc(C(F)(F)F)cc1C(CC(=O)O)NC(=O)c1cc(O)n(-c2ccccc2)n1 (centres unmarked) [Example 548]
5. CC(C)(C)[C@@](C)(O)COc1cc(C(=O)N[C@@H](CC(=O)O)c2ccc(F)cc2)nn1-c1ccccc1F [Example 771]

Ans:
1000 to 30000 nM
< 100 nM
< 100 nM
1000 to 30000 nM
< 100 nM

###

biological target: Recombinant human cathepsin A (Homo sapiens); construct: Recombinant human cathepsin A (residues 29-480, with a C-terminal 10-His tag); 10-His (C); purchased R&D Systems 1049-SE; assay: Cathepsin A inhibitory activity; assay type: biochemical; conditions: read-out: Activity (2): Cathepsin A inhibitory activity (IC50 class)
Provide the reported IC50 of each item.

Cc1ccccc1[C@H](CC(=O)O)NC(=O)c1cc(OC[C@H]2CCC(=O)N2)n(-c2ccccc2F)n1: < 0.1 µM
CCOc1cc(C(=O)NC(CC(=O)O)c2ccc(F)cc2)nn1-c1ccccc1F (centres unmarked): 0.1 to 1 µM
COc1cc(C(=O)N[C@@H](CC(=O)O)c2ccccc2C)nn1-c1ccccc1Cl: 0.1 to 1 µM
COc1ccc(C(CC(=O)O)NC(=O)c2cc(O)n(-c3ccccc3Cl)n2)c(C(F)(F)F)c1 (centres unmarked): 1 to 30 µM
Cc1ccccc1[C@H](CC(=O)O)NC(=O)c1cc(OC[C@](C)(O)C(C)C)n(-c2ccccc2F)n1: < 0.1 µM

# batch: return IC50 for each of the 3 molecules below
1. Cc1ccc(C(CC(=O)O)NC(=O)c2cc(O)n(-c3ccccc3F)n2)c(F)c1 (centres unmarked)
2. CCOc1cc(C(=O)N[C@@H](CC(=O)O)c2ccccc2OC)nn1-c1ccccc1Cl
3. N#Cc1ccc([C@H](CC(=O)O)NC(=O)c2cc(OCC3CC3)n(-c3ccccc3F)n2)cc1

Ans:
0.1 to 1 µM
0.1 to 1 µM
< 0.1 µM

###

Provide the reported IC50 of each item.
biological target: Recombinant human cathepsin A (Homo sapiens, UniProt P10619); construct: Recombinant human cathepsin A (residues 29-480, with a C-terminal 10-His tag); 10-His (C); purchased R&D Systems 1049-SE; experiment: Cathepsin A inhibitory activity; assay type: biochemical; details: read-out: Activity (2): Cathepsin A inhibitory activity (IC50 class)

See these solved cases before continuing.
Cc1ccccc1[C@H](CC(=O)O)NC(=O)c1cc(OCc2c(F)cccc2F)n(-c2ccccc2F)n1: < 100 nM
CC(C)(C)[C@](C)(O)COc1cc(C(=O)NC(CC(=O)O)C2CCCCC2)nn1-c1ccccc1F (stereo partly drawn): < 100 nM
COc1cc(C(=O)N[C@@H](CC(=O)O)c2cccc(Cl)c2Cl)nn1-c1ccccc1: < 100 nM
COc1ccc(-c2ccccc2)cc1C(CC(=O)O)NC(=O)c1cc(O)n(-c2ccccc2F)n1 (stereo not drawn): 1000 to 30000 nM
CCOc1cc(C(=O)N[C@@H](CC(=O)O)c2ccccc2C)nn1-c1ccccc1Cl: < 100 nM

# batch: return IC50 for each of the 8 compounds below
1. COc1cc(C(=O)N[C@@H](CC(=O)O)c2ccc(C#N)cc2)nn1-c1ccccc1F
2. Cc1ccccc1[C@H](CC(=O)O)NC(=O)c1cc(OCCc2ccccc2)n(-c2ccccc2F)n1
3. Cc1ccccc1[C@H](CC(=O)O)NC(=O)c1cc(OCC(=O)N(C)C)n(-c2ccccc2F)n1
4. Cc1ccccc1[C@H](CC(=O)O)NC(=O)c1cc(OC[C@H](O)C(C)(C)C)n(-c2ccccc2F)n1 (single isomer, unassigned)
5. CCOc1cc(C(=O)N[C@@H](CC(=O)O)c2ccccc2)nn1-c1ccccc1F
6. O=C(O)CC(NC(=O)c1cc(O)n(-c2ccccc2)n1)c1ccc(-c2ccccc2Cl)cc1 (stereo not drawn)
7. CCOc1cc(C(=O)N[C@@H](CC(=O)O)c2cccc(OC)c2)nn1-c1ccccc1F
8. Cc1ccc([C@H](CC(=O)O)NC(=O)c2cc(OCC(=O)C(C)(C)C)n(-c3ccccc3F)n2)cc1

Ans:
["100 to 1000 nM", "< 100 nM", "< 100 nM", "< 100 nM", "100 to 1000 nM", "100 to 1000 nM", "100 to 1000 nM", "< 100 nM"]

# batch: return IC50 for each of the 2 compounds below
1. Cc1ccc([C@H](CC(=O)O)NC(=O)c2cc(OCC(C)(O)c3ccccc3)n(-c3ccccc3F)n2)cc1 (stereo partly drawn)
2. O=C(O)CC(NC(=O)c1cc(O)n(-c2ccccc2F)n1)c1ccc(-n2cncn2)cc1 (stereo not drawn)

Ans:
1. < 100 nM
2. 100 to 1000 nM

###

target: Recombinant human cathepsin A (Homo sapiens, UniProt P10619); construct: Recombinant human cathepsin A (residues 29-480, with a C-terminal 10-His tag); 10-His (C); purchased R&D Systems 1049-SE; assay: Cathepsin A inhibitory activity; format: biochemical; conditions: read-out: Activity (2): Cathepsin A inhibitory activity, IC50 class
Provide the reported IC50 of each item.

See these solved cases before continuing.
CC(C)[C@](C)(O)COc1cc(C(=O)NCC(C(=O)O)c2ccccc2)nn1-c1ccccc1F (some centres unmarked): 100 to 1000 nM
COc1ccc(C(CC(=O)O)NC(=O)c2cc(O)n(-c3ccccc3)n2)cc1 (centres unmarked): 100 to 1000 nM

# batch: return IC50 for each of the 5 molecules below
1. COc1ccc([C@H](CC(=O)O)NC(=O)c2cc(O)n(-c3ccccc3F)n2)cc1
2. O=C(O)CC(NC(=O)c1cc(O)n(-c2ccccc2)n1)c1ccc(F)c(F)c1 (centres unmarked)
3. Cc1ccc(C(CC(=O)O)NC(=O)c2cc(O)n(-c3ccccc3)n2)cc1 (centres unmarked)
4. Cc1ccc(C)c(-n2nc(C(=O)NC(CC(=O)O)c3ccc(CC(C)C)cc3)cc2O)c1 (centres unmarked)
5. Cc1ccc(C)c(-n2nc(C(=O)NC(CC(=O)O)c3ccc(OC(F)(F)F)cc3)cc2O)c1 (centres unmarked)

Ans:
100 to 1000 nM
1000 to 30000 nM
100 to 1000 nM
1000 to 30000 nM
1000 to 30000 nM

Input "Cc1cccc([C@H](CC(=O)O)NC(=O)c2cc(O)n(-c3cccc(F)c3)n2)c1" . Output IC50: 100 to 1000 nM

###

Provide the reported IC50 of each item.
biological target: Recombinant human cathepsin A (Homo sapiens, UniProt P10619); construct: Recombinant human cathepsin A (residues 29-480, with a C-terminal 10-His tag); 10-His (C); purchased R&D Systems 1049-SE; experiment: Cathepsin A inhibitory activity; format: biochemical; details: recombinant human cathepsin A 833 ng/ml, Bodipy FL-labeled bradykinin 2 μM, pH 5.5; read-out: CATH-A IC50
One number for each entry, in nM.

See these solved cases before continuing.
O=C(O)CC(NC(=O)c1cc(O)n(-c2ccccc2)n1)c1cc(F)ccc1C(F)(F)F (stereo not shown): 220
COc1cc(-c2ccccc2)ccc1C(CC(=O)O)NC(=O)c1cc(O)n(-c2ccccc2Cl)n1 (stereo not shown): 699
CC(C)(C)[C@@](C)(O)COc1cc(C(=O)N[C@@H](CC(=O)O)c2ccc(F)cc2)nn1-c1ccccc1F: 1.97

# batch: return IC50 for each of the 3 compounds below
1. COc1ccc(F)cc1C(CC(=O)O)NC(=O)c1cc(O)n(-c2ccc(F)cc2)n1 (stereo not shown)
2. COc1cc(-c2ccccc2)ccc1C(CC(=O)O)NC(=O)c1cc(O)n(-c2ccccc2F)n1 (stereo not shown)
3. O=C(O)CC(NC(=O)c1cc(O)n(-c2cccc(Cl)c2)n1)c1cc(F)ccc1Cl (stereo not shown)

Ans:
[1510, 352, 100]

# batch: return IC50 for each of the 5 compounds below
1. O=C(O)CC(NC(=O)c1cc(O)n(-c2ccc(Cl)cc2)n1)c1cc(F)ccc1Cl (stereo not shown)
2. O=C(O)CC(NC(=O)c1cc(O)n(-c2cccc(Cl)c2)n1)c1cc(F)ccc1C(F)(F)F (stereo not shown)
3. CC(C)[C@@](C)(O)COc1cc(C(=O)N[C@@H](CC(=O)O)c2ccc(F)cc2)nn1-c1ccccc1F
4. O=C(O)CC(NC(=O)c1cc(O)n(-c2ccc(Cl)cc2)n1)c1ccc(-c2ccccn2)cc1 (stereo not shown)
5. O=C(O)C[C@H](NC(=O)c1cc(O)n(-c2ccc(F)cc2)n1)c1ccccc1Cl

Ans:
1. 398
2. 562
3. 1.15
4. 238
5. 413

# batch: return IC50 for each of the 5 compounds below
1. O=C(O)CC(NC(=O)c1cc(O)n(-c2ccc(Cl)cc2)n1)c1cc(F)ccc1F (stereo not shown)
2. Cc1ccc([C@H](CC(=O)O)NC(=O)c2cc(O)n(-c3cccc(Cl)c3)n2)cc1
3. O=C(O)CC(NC(=O)c1cc(O)n(-c2ccccc2F)n1)c1cc(F)ccc1Cl (stereo not shown)
4. COc1ccc(-c2ccccc2)cc1C(CC(=O)O)NC(=O)c1cc(O)n(-c2ccccc2F)n1 (stereo not shown)
5. O=C(O)C[C@H](NC(=O)c1cc(O)n(-c2cccc(Cl)c2)n1)c1ccccc1Cl

Ans:
[4090, 155, 137, 8650, 304]
